assay: NCI Yeast Anticancer Drug Screen. Data for the mec2-1 strain (AID 157); settings: S. cerevisiae mec2-1 strain, at 50.0 µM, active compounds read high
The panel holds about 79,000 compounds, 15% with a hit somewhere; the sample as a whole holds those more often.
Dear colleague, classification is by growth inhibition, with ranges listed here: band 1: < 30%; band 2: ≥ 30% and < 80%; band 3: ≥ 80%

Study these solved cases before continuing.
| MOLECULE | CAT |
| --- | --- |
| CCN(CC)C(=S)N/N=C(\C)c1cccc(C)n1 | band 3 |
| O=C1NC(=O)C(Cc2ccccc2)(Cc2ccccc2)S1 | band 3 |
| CC(=O)Oc1c(C)cc([N+](=O)[O-])cc1[N+](=O)[O-] | band 3 |
| NNC(=O)N/N=C(/CC1(O)C(=O)Nc2ccc(Br)cc21)c1ccccc1 (configuration not stated) | band 3 |

Category of CCCCCCCCCCCCNC(=O)C[n+]1ccc(C(N)=O)cc1 :
band 2

Dear colleague, I would appreciate it if you could identify the bin for Nc1nc2ccccc2cc1C(=O)O and reply at your convenience.
band 1

Lab log: COc1ccc(C(=O)Nc2ccccc2OC)cc1 — assign growth inhibition category
band 1

Using the reported growth inhibition, which band applies to O=C(O)C/C(=C\c1ccco1)C(=O)O ?
band 1

Consider O=[N+]([O-])c1ccc(Sc2ccsc2)c([N+](=O)[O-])c1 . To which growth inhibition class does it belong?
band 2

Hey, which category is COC(=O)/C(=C/c1ccc(/C=C(/C(=O)O)c2ccc(OC)cc2)o1)c1ccccc1 in, do you know?
band 1

Consider NCCOB(c1ccccc1)c1ccccc1 . To which growth inhibition class does it belong?
band 2

###

test: NCI Yeast Anticancer Drug Screen. Data for the bub3 strain (AID 167); settings: S. cerevisiae bub3 mutant strain, at 5.0 µM (retest, dose inferred, filed as 0.5), active compounds read high
Compounds without any hit were thinned out: in the full panel of roughly 79,000, 15% have a hit.
TRUE means recorded growth inhibition is 10% or above; FALSE means it is below 10%.

See these solved cases before continuing.
| MOLECULE | CAT |
| --- | --- |
| c1ccc2c(c1)N=c1ccccc1=P21c2ccccc2Nc2ccccc21 | TRUE |
| O=C(CCl)NC(=O)N(/N=C/c1ccco1)c1ccccc1 | FALSE |
| CCOC(=O)/C(=C\c1ccccc1)C(=O)CCN1CCOCC1 | TRUE |
| Cc1ccc(N2CC3CC4(C)C=CC3(C2)O4)cc1 (stereo not given) | TRUE |

Turning now to a further record.
Would you say O=C1c2ccccc2C(=O)c2c(OCCOCCO)cccc21 shows growth inhibition at minimum 10%?
FALSE

###

assay: NCI Yeast Anticancer Drug Screen. Data for the mlh1 rad18 strain (AID 175); settings: S. cerevisiae mlh1 rad18 strain growth inhibition; at 5.0 µM (retest, dose inferred, filed as 0.5)
This is part of a sample that, as a whole, favours compounds with a hit. Of some 79,000 tested, about 15% had one in any assay. Calls of active or inactive are those of the source. Rule as the data show it: active = growth inhibition above about 70%; inactive = the rest.
Pick one and only one: T = active, F = inactive

| MOLECULE | CAT |
| --- | --- |
| O=C1C=CC(Nc2cccc([N+](=O)[O-])c2)C1Nc1cccc([N+](=O)[O-])c1 (stereo not drawn) | F |
| CCCCCC(O)C(C)CO (stereo not drawn) | F |
| CCCCCCCCN(CCCCCCCC)CC(O)c1cc(-c2ccc(OC)cc2)nc2cc(Cl)ccc12 (stereo not drawn) | F |
| O=C(C[n+]1ccccc1Cl)c1ccc(Oc2ccc(C(=O)C[n+]3ccccc3Cl)cc2)cc1 | F |
| Cc1cc(=O)[nH]c(NN2C(Cl)C(=O)C2c2ccc(O)cc2)n1 (stereo not drawn) | F |

Test call for this molecule, please: Cc1cccc(/C=N\OCCc2ccccc2)n1
F

Outcome? Cc1ccc2cccc(N)c2c1
F

Per the assay record, what outcome was assigned to CC(C)Cc1cc2c(cc1O)CCC1C2CC[C@@]2(C)C1CC[C@@H]2O (stereo partly drawn) ?
F

Test call, this molecule: Oc1c(Cl)cc(C(c2cc(Cl)c(O)c(Cl)c2)C(c2cc(Cl)c(O)c(Cl)c2)c2cc(Cl)c(O)c(Cl)c2)cc1Cl
T

Call for entry CCOc1ccc2c(c1)[n+]([O-])c(-c1ccc([N+](=O)[O-])cc1)c(N)[n+]2[O-] :
F

Record lookup: outcome of this test for O=Cc1cc2ccccc2cc1C=O ?
T
